tgt: cGAS (Homo sapiens (Human))
test name: Human cGAS enzyme assay (hcGAS IC50, in vitro), cGAMP formation by RapidFire MS
Format: biochemical
cond: biochemical (in vitro) cGAS inhibition
readout: IC50 (nM)

The examples below pair each entry with its known result.
{"compound": "CC1(C#N)CN(c2cc(Cl)cnc2O[C@H]2C[C@@H](C(=O)O)N(c3nc(C(F)(F)F)nc4c3oc3ccccc34)C2)CCO1 (stereo partly drawn)", "readout": "IC50", "measured value": 7}
{"compound": "CNc1cc(-c2cnc(O[C@H]3C[C@@H](C(=O)O)N(c4nc(C(F)F)nc5c4oc4ccccc45)C3)c(N3CCOC4(COC4)[C@@H]3C)c2)ccn1", "readout": "IC50", "measured value": 5}
{"compound": "CNc1cccc(-c2cnc(O[C@H]3C[C@@H](C(=O)O)N(c4nc(C(F)(F)F)nc5c4oc4ccccc45)C3)c(N3CCOC4(COC4)[C@@H]3C)c2)c1", "readout": "IC50", "measured value": 9}

P. CSc1cnc(O[C@H]2C[C@@H](C(=O)O)N(c3nc(C(F)F)nc4c3oc3ccccc34)C2)c(N2CCOC3(COC3)[C@@H]2C)c1
Q. C[C@H]1COCCN1c1cc(-c2ccnc(C(F)F)c2)cnc1O[C@H]1C[C@@H](C(=O)O)N(c2nc(C(F)(F)F)nc3c2oc2ccccc23)C1
R. C[C@@H]1OCCN(c2cc(Cl)cnc2O[C@H]2C[C@@H](C(=O)O)N(c3nc(C(F)(F)F)nc4c3oc3ccccc34)C2)[C@H]1C
# sort list by recorded IC50, greatest to least Dear reader, please state the labels in the requested order.
R, Q, P
(R: 65 nM, Q: 12 nM, P: 6 nM)

###

tgt: cGAS (Homo sapiens (Human), UniProt Q8N884)
Sequence (Q8N884 whole entry): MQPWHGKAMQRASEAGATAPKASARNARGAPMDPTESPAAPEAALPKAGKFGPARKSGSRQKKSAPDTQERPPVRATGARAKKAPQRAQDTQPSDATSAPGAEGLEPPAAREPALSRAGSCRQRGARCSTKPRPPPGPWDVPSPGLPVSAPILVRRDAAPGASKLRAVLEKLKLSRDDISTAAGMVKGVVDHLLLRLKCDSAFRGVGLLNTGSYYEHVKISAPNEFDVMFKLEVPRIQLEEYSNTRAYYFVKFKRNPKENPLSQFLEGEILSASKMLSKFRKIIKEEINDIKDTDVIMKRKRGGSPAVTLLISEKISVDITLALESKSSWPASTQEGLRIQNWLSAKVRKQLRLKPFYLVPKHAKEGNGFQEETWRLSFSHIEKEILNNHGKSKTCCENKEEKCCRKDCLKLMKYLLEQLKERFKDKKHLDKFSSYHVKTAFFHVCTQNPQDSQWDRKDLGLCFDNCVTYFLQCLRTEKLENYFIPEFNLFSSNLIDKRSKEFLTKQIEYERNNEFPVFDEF
test name: Human cGAS enzyme assay (hcGAS IC50, in vitro), cGAMP formation by RapidFire MS;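 note: enzyme activated by 45 bp dsDNA with GTP and ATP (30 µM each), 60 min compound pre-incubation then 90 min reaction, cGAMP relative to cyclic-di-GMP internal standard, 8-point dilutions up to 10 µM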
Assay type: biochemical
cond: biochemical (in vitro) cGAS inhibition
readout: IC50 (nM)

{"molecule": "C[C@@H]1N(c2cc(-c3ccnc([S+](C)[O-])c3)cnc2O[C@H]2C[C@@H](C(=O)O)N(c3nc(C(F)F)nc4c3oc3ccccc34)C2)CCOC12COC2 (stereo partly drawn) [Example 5.01]", "tgt": "cGAS (Homo sapiens (Human), UniProt Q8N884)", "readout": "IC50", "measured value": 5}

A. C[C@@H]1N(c2cc(-c3cccnc3C#N)cnc2O[C@H]2C[C@@H](C(=O)O)N(c3nc(C(F)(F)F)nc4c3oc3ccccc34)C2)CCOC12COC2 [Example 3.28]
B. COc1cc(-c2cnc(O[C@H]3C[C@@H](C(=O)O)N(c4nc(C(F)F)nc5c4oc4ccccc45)C3)c(N3CCOC4(COC4)[C@@H]3C)c2)c(F)cn1 [Example 3.32]
Smaller IC50 value, A vs B ? Write down the label attached to your selection.
B
(B: 9 nM, A: 14 nM)

###

Tested on: cellular cGAS activity in dsDNA-stimulated human whole blood
test name: Human whole blood assay (hWB IC50): IFNα2α production after dsDNA transfection
Assay type: cell-based
cond: dsDNA-stimulated human whole blood, IFN induction
IC50 overview
Write it as a number; the unit nM goes unstated.

Some entries whose results are on file:
{"smiles text": "COC(=O)[C@@H]1C[C@H](Oc2ncc(Br)cc2N2CCOC3(COC3)[C@@H]2C)CN1c1nc(C(F)(F)F)nc2c1oc1ccccc12", "measured value": 5330}
{"smiles text": "COC(=O)[C@@H]1C[C@H](Oc2ncc(-c3cccnc3OC)cc2N2CCOC3(COC3)[C@@H]2C)CN1c1nc(C(F)(F)F)nc2c1oc1ccccc12", "measured value": 2750}
{"smiles text": "COC(=O)[C@@H]1C[C@H](Oc2ncccc2N2CCOC3(COC3)[C@@H]2C)CN1c1nc(C(F)F)nc2c1oc1ccccc12", "measured value": 1310}

# input for lookup
// returns reported IC50 for input C#Cc1cnc(O[C@H]2C[C@@H](C(=O)OC)N(c3nc(C(F)(F)F)nc4c3oc3ccccc34)C2)c(N2CCOC3(COC3)[C@@H]2C)c1
1090
